# assay overview: Drug uptake in FVB/NJ mouse brain at 12.5 mg/kg, ip measured after 60 mins post dose by LC-MS/MS analysis
# Format: ADME, organism-based
# condition context: read-out: Drug uptake
assay endpoint: concentration at 1 h (ng/g)
Express the result in ng/g but write the number alone.

Quick one: concentration at 1 h for COc1cc(CCc2cc(NS(=O)(=O)c3ccccn3)c3ncccc3c2)cc(OC)c1 ? 14400

====

# assay overview: Drug uptake in FVB/NJ mouse brain at 25 mg/kg, ip measured after 240 mins post dose by LC-MS/MS analysis
# Format: ADME, organism-based
# condition context: read-out: Drug uptake
assay endpoint: concentration at 4 h (ng/g)
Express the result in ng/g but write the number alone.

Quick one: concentration at 4 h for COc1cc(CCc2cc(NS(=O)(=O)c3ccccn3)c3ncccc3c2)cc(OC)c1 ? 8300

The reported measurements were obtained from ChEMBL document CHEMBL4368911.
